Test system: KB-3-1
Measurement description: Cytotoxic Profiling of Annotated Libraries Using Quantitative High-Throughput Screening (AID 1296008); further: on the % scale 0 is the no-effect control and ±100 the full control effect; nearly all actives have a fitted effect of over 60% in size
Condition summary: Five cell lines viability, CellTiter-Glo ATP luminescence, 48-72 h; hits give low values
Inconclusive results are not listed.
Measurement kind: max response (%)

# Molecule, System, Recorded result
data = [
    ("C[C@@H]1C(=O)O[C@H]2[C@@H](O)C34[C@H]5C[C@@H](C(C)(C)C)C36[C@@H](OC(=O)[C@@H]6O)O[C@@]4(C(=O)O5)[C@@]12O (stereo partly drawn)", "KB-3-1", -6.44),
    ("C/C=C/c1ccc2c(c1)[C@@H](C)[C@H](c1ccc(O)cc1)O2", "KB-3-1", -2.15),
    ("C[C@H](Oc1ccc(S(C)(=O)=O)cc1C(=O)N1CCN(c2ncc(C(F)(F)F)cc2F)CC1)C(F)(F)F", "KB-3-1", 4.57),
    ("C[C@]12C[C@@H](O)[C@@H]3C[C@@]1(O[C@@H]1O[C@H](CO)[C@@H](O)[C@H](O)[C@H]1O)[C@]3(COC(=O)c1ccccc1)C(=O)O2", "KB-3-1", 4.54),
    ("CC(=O)NC[C@H]1CN(c2ccc(N3CCN(C(=O)CO)CC3)c(F)c2)C(=O)O1", "KB-3-1", -17.1),
    ("CCNC(=O)C1OC(n2cnc3c(N)nc(NCCc4ccc(CCC(=O)O)cc4)nc32)C(O)C1O (stereo not drawn)", "KB-3-1", -5.77),
    ("COc1ccccc1NC(=O)OCC1CCN(C(=O)OC(C)(C)C)CC1", "KB-3-1", -8.5),
    ("C=CC1C(OC2OC(CO)C(O)C(O)C2O)OC=C2C(=O)N3C(C(=O)O)Cc4c([nH]c5ccccc45)C3CC21 (stereo not drawn)", "KB-3-1", 6.21),
]

====

Each entry below carries its reported max response.
System: HEK293
Measurement description: Cytotoxic Profiling of Annotated Libraries Using Quantitative High-Throughput Screening (AID 1296008); further: on the % scale 0 is the no-effect control and ±100 the full control effect; nearly all actives have a fitted effect of over 60% in size
Condition summary: Five cell lines viability, CellTiter-Glo ATP luminescence, 48-72 h; hits give low values
Inconclusive results are not listed.
Measurement kind: max response (%)

# Compound, System, Recorded result
records = [
    ("C[C@@]12C[C@]3(O)O[C@H](O1)[C@]1(COC(=O)c4ccccc4)[C@H]3C[C@@]12O[C@@H]1O[C@H](CO)[C@@H](O)[C@H](O)[C@H]1O", "HEK293", 0.308),
    ("C/C1=C\\CC[C@]2(C)O[C@@H]2[C@H](O)[C@H](C(C)C)[C@H](OC(=O)/C=C/c2ccccc2)C1", "HEK293", -26.5),
    ("C1CCC[C@H]2CCCN3CC[C@@H](CCCCCC[C@@H]4CCCN5CC[C@@H](CC1)O[C@@H]45)O[C@@H]23", "HEK293", 4.46),
    ("COc1nc2sc(C(=O)NC3CC3)c(N)c2c(C)c1Cl", "HEK293", -8.8),
    ("CNC12CC3C[C@@](C)(C1)C[C@](C)(C3)C2", "HEK293", -16.8),
    ("C=C1C(OC(C)=O)CCC2(C)CC3(OC)OC(=O)C(C)=C3CC12 (configuration not stated)", "HEK293", -22.9),
    ("CC1(C)CC[C@@]2(C(=O)O[C@@H]3O[C@H](CO)[C@@H](O)[C@H](O)[C@H]3O)C(C1)C1=CCC3[C@@]4(C)CC[C@@H](O[C@@H]5O[C@H](C(=O)O)[C@@H](O[C@@H]6OC[C@@H](O)[C@H](O)[C@H]6O)[C@H](O[C@@H]6OC[C@](O)(CO)[C@H]6O)[C@H]5O)C(C)(C)C4CC[C@@]3(C)[C@]1(C)C[C@H]2O (some centres not stated)", "HEK293", -3.68),
]

====

Tested on: Zika virus NS2B-NS3 protease (linked construct)
Measurement description: Primary screen NINDS Rhodamine qHTS for Zika virus inhibitors (AID 1347160); further: on the % scale 0 is the no-effect control and ±100 the full control effect; nearly all actives have a fitted effect of over 55% in size
Condition summary: purified NS2B-NS3 protease, Rhodamine110 substrate fluorescence; series mostly up to 57.1 µM
Records with an inconclusive call do not appear. Active and inactive are the calls of the source. The call rests on the fitted dose curve; in most records, active means well fitted inhibition curve with a large enough effect; inconclusive means small, poorly fitted or top-dose-only effect; inactive means no such curve, though single readings can be large or run the other way.

# Compound, activity change, negative = inhibition
measured = [
    ("CC1OC(O[C@H]2CC[C@@]3(C)C(CC[C@]4(C)C3CC=C3C5CC(C)(C)CC[C@]5(C(=O)OC5OC(CO)C(OC6OC(COC7OCC(O)C(O)C7O)C(O)C(O)C6O)C(O)C5O)CC[C@]34C)C2(C)C)C(O)C(O)C1OC1OCC(OC2OCC(O)C(O)C2O)C(O)C1O (stereo partly drawn)", "-22.7% [at 10.7 µM] (inactive)"),
    ("C[C@@H]1O[C@@H](O[C@@H]2[C@@H](O[C@@H]3O[C@@H](C)[C@H](O[C@@H]4OC[C@H](O)[C@H](O[C@@H]5OC[C@@H](O)[C@H](O)[C@H]5O)[C@H]4O)[C@@H](O[C@@H]4OC[C@](O)(CO)[C@H]4O)[C@H]3O)[C@H](OC(=O)[C@]34CCC(C)(C)C[C@H]3C3=CCC5[C@@]6(C)C[C@H](O)[C@H](O[C@@H]7O[C@H](CO[C@@H]8OC[C@H](O)[C@H](O)[C@H]8O)[C@@H](O)[C@H](O)[C@H]7O)C(C)(C)C6CC[C@@]5(C)[C@]3(C)C[C@H]4O)OC[C@H]2O)[C@H](O)[C@H](O)[C@H]1O (stereo partly drawn)", "1.34% [at 10.7 µM] (inactive)"),
    ("C=CC(C)(O)CC/C=C(\\C)C(=O)OC1C(O)C(CO)OC(OC(=O)C23CCC(C)(C)CC2C2=CCC4C5(C)CCC(OC6OC(COC7OCC(OC(C)=O)C(O)C7OC7OC(COC(C)=O)C(O)C(O)C7O)C(O)C(O)C6O)C(C)(C)C5CCC4(C)C2(C)C(O)C3O)C1OC1OCC(OC2OCC(O)C(OC3OCC(O)C(O)C3O)C2O)C(O)C1O (stereo not drawn)", "18.5% [at 10.7 µM] (inactive)"),
]

====

Tested on: CAOV3
Measurement description: Primary qHTS to identify gynecologic anti-cancer compounds using libraries of approved drugs and bioactive compounds (AID 1345084); further: nearly all actives have a fitted effect of over 55% in size; on activity change, negative = cytotoxicity: on the % scale 0 is the no-effect control and ±100 the full control effect
Condition summary: Gynecologic cancer cell panel viability, ATPlite luminescence, 48 h; series mostly up to 57.5 µM
Text: National Center for Advancing Translational Sciences [NCATS] Assay Overview: Chemotherapeutic drug responses vary from cancer to cancer and from patient to patient. […] ATPlite is a luminescence based assay reliant on the conversion of a luciferase substrate to light in the presence of ATP. As a cytotoxic compound will suppress growth and decrease the number of cells, the concentration of ATP will decrease, and less light signal will be detected in the well. […]
Results filed as inconclusive are left out. Activity calls are given as the source filed them. The call rests on the fitted dose curve; in most records, active means well fitted cell-killing curve with a large enough effect; inconclusive means small, poorly fitted or top-dose-only effect, or effect the other way; inactive means flat fitted curve, though single readings scatter.

# Compound, activity change, negative = cytotoxicity
records = [
    ("CC1OC(OC2C(C)OC(OC3C(O)C(CO)OC(O[C@H]4CC[C@@]5(C)C(CC[C@]6(C)C5CC=C5C7[C@@H](C)[C@H](C)CC[C@]7(C(=O)O)CC[C@]56C(=O)O)C4(C)C)C3O)C(O)C2O)C(O)C(O)C1O (some centres not stated)", "10.5% [at 11.6 µM] (inactive)"),
    ("C[C@@H]1O[C@@H](O[C@H]2[C@@H](OC(=O)[C@]34CCC(C)(C)CC3C3=CCC5[C@@]6(C)C[C@H](O)[C@H](O[C@@H]7O[C@H](C(=O)O)[C@@H](O)[C@H](O)[C@H]7O)[C@@](C)(C(=O)O)C6CC[C@@]5(C)[C@]3(C)CC4)OC[C@H](O)[C@@H]2O)[C@H](O)[C@H](O)[C@H]1O[C@@H]1OC[C@@H](O)[C@H](O)[C@H]1O (some centres not stated)", "24.8% [at 11.6 µM] (inactive)"),
]

====

System: HeLa
Measurement description: Primary qHTS to identify gynecologic anti-cancer compounds using libraries of approved drugs and bioactive compounds (AID 1345084); further: nearly all actives have a fitted effect of over 55% in size
Condition summary: Gynecologic cancer cell panel viability, ATPlite luminescence, 48 h; series mostly up to 57.5 µM
Inconclusive results are not listed. Active and inactive are the calls of the source. Calls come from the whole dose curve; as a rule, active = well fitted cell-killing curve with a large enough effect; inconclusive = small, poorly fitted or top-dose-only effect, or effect the other way; inactive = flat fitted curve, though single readings scatter.
Classes used: class 1 for active, class 0 for inactive

# Molecule, Category
data = [
    ("c1cn2cc(-c3ccc4cn[nH]c4c3)nc(Nc3ccc(N4CCOCC4)cc3)c2n1", "class 1"),
    ("COc1ccc(/C=C\\C(=O)O)c(O[C@@H]2O[C@H](CO)[C@@H](O)[C@H](O)[C@H]2O)c1", "class 0"),
    ("CC(C)=CCC[C@](C)(O[C@@H]1O[C@H](CO)[C@@H](O)[C@H](O)[C@H]1O)[C@H]1CC[C@]2(C)[C@@H]1[C@H](O)CC1[C@@]3(C)CC[C@H](O)C(C)(C)C3[C@@H](O[C@@H]3O[C@H](CO)[C@@H](O)[C@H](O)[C@H]3O)C[C@]12C (stereo not given in full)", "class 0"),
    ("C=C(C)C1CC[C@]2(C(=O)O)CC[C@]3(C(=O)O)[C@H](CCC4[C@@]5(C)CC[C@H](O)C(C)(C)C5CC[C@]43C)C12 (stereo not given in full)", "class 0"),
    ("COc1ccc(F)cc1-c1cc(NC(=O)[C@@H]2CCCNC2)ncc1Cl", "class 1"),
    ("C/C(=C\\CC[C@@H](C)[C@H]1CC(O)[C@@]2(C)C3CC[C@H]4C(C)(C)[C@@H](OC5OCC(O)C(O)C5OC5OC(CO)C(O)C(O)C5O)CC[C@@]45C[C@@]35CC(O)[C@]12C)C(=O)O (stereo not given in full)", "class 0"),
    ("O=C(Cc1ccc(-c2ccccc2)cc1)NC1CCC1", "class 0"),
    ("C=CC(C)(O)C(O)CC1C(C)(O)C(O)C(O)C2C(C)(C)CCCC21C (stereo not given)", "class 0"),
    ("C/C=C(/COC(=O)/C(C)=C/C)C(=O)OC(CC)c1ccc(OC)c(OC)c1 (stereo not given)", "class 0"),
    ("Cc1cccc(C)c1OCc1cc(C(=O)N2CCC(c3ccncc3)CC2)no1", "class 0"),
    ("CC1=C(C(=O)OCc2ccccc2)C(c2ccc(-c3ccccc3)cc2)NC(=O)N1CCCCCC(=O)O (stereo not given)", "class 0"),
    ("CC(=O)OC[C@]12[C@H](OC(C)=O)C(=O)[C@@H]3[C@@H](OC(C)=O)[C@@]14O[C@@]3(C)COC(=O)c1cccnc1[C@@H](C)[C@H](C)C(=O)O[C@@H]([C@H](O)[C@@H]2OC(C)=O)[C@]4(C)O", "class 0"),
    ("CC12CCC3c4ccc(O)cc4CCC3C1CC(OC1OC(C(=O)O)C(O)C(O)C1O)C2O (stereo not given)", "class 0"),
    ("CCC(CC)C(=O)Nc1sc2c(c1C#N)CCC(C(C)(C)CC)C2 (stereo not given)", "class 0"),
    ("OC[C@H]1O[C@@H](OC[C@H]2O[C@@H](OC/C=C/c3ccccc3)[C@H](O)[C@@H](O)[C@@H]2O)[C@@H](O)[C@@H]1O", "class 0"),
]
